# subject.of.test: salutaridinol 7-O-acetyltransferase (Papaver somniferum, UniProt Q94FT4)
# Sequence (Q94FT4 whole entry): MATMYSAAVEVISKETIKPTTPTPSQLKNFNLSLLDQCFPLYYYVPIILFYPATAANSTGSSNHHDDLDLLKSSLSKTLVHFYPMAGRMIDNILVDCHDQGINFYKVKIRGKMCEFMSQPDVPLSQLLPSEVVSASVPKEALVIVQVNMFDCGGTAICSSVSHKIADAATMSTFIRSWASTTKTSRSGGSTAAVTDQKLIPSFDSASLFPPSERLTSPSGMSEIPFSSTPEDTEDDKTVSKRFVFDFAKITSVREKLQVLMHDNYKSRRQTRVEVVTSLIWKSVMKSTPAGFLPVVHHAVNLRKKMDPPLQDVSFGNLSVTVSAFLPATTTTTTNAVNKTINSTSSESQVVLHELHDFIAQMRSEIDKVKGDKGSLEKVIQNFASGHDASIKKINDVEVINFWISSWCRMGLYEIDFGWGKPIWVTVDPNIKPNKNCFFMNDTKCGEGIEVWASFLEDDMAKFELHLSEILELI
# setup.conditions: recombinant enzyme, acetyl CoA
measured.quantity: acetylation at C-7 by the recombinant enzyme (substrate acceptance)

INSERT INTO measurements (compound, value) VALUES
  ('COC1=C[C@]23CCN(C)[C@H](Cc4ccc(OC)c(O)c42)C3=CC1=O', 'not'),
  ('CC[C@]12C=CCN3CC[C@@]4(c5ccc(OC)cc5N(C)[C@H]4[C@@](O)(C(=O)OC)[C@@H]1O)[C@@H]32', 'not'),
  ('COC1=C[C@]23CCN(C)[C@H](Cc4ccc(OC)c(O)c42)C3=C[C@@H]1O [7(R)-salutaridinol]', 'not');
